// reported IC50 for each item listed
Target: hROMK (hKir1.1) (Homo sapiens (Human))
Sequence (P48048 whole entry): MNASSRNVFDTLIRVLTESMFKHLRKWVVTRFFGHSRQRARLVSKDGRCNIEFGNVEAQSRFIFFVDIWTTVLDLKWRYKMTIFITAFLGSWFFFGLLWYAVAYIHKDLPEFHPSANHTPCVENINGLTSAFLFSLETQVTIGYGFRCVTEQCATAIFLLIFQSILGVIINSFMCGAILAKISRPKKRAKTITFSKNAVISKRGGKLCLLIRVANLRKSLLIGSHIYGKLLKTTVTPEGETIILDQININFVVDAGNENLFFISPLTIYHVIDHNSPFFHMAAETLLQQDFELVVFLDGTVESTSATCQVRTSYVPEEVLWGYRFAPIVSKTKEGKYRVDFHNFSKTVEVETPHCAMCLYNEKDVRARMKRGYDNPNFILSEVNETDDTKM
Assay: Thallium Flux Assay (ROMK channel functional thallium flux assay, FLIPR-Tetra)
Settings: HEK293 cells stably expressing hROMK (hKir1.1); 30 min incubation with test compound
Measurement name: IC50 (nM)

INSERT INTO results (compound, measurement_name, quantitative_result) VALUES
  ('CC1=C(N2CCC3(CCN(CC(O)c4cnc(-n5cnnn5)c(F)c4)CC3)C2=O)CCC1=O (stereo not shown) [Example 29]', 'IC50', 674),
  ('Cc1nc(-n2cnnn2)ccc1C(O)CN1CCC2(CC1)CCN(C1=CC(=O)CC1)C2=O (stereo not shown) [Example 14]', 'IC50', 87),
  ('CC1=C(N2CCC3(CCN(CC(O)c4cnc(-n5cnnn5)c(F)c4)CC3)C2=O)CCC1=O (stereo not shown) [Example 28]', 'IC50', 295),
  ('Cc1c([C@@H](O)CN2CCC3(CCCN(C4=CC(=O)CC4)C3=O)CC2)ccc2c1COC2=O [Example 34]', 'IC50', 10.9);
